# tested_system: GSK3b (GST-full length GSK3b) (Homo sapiens (Human), UniProt P49841)
# Sequence (P49841 whole entry): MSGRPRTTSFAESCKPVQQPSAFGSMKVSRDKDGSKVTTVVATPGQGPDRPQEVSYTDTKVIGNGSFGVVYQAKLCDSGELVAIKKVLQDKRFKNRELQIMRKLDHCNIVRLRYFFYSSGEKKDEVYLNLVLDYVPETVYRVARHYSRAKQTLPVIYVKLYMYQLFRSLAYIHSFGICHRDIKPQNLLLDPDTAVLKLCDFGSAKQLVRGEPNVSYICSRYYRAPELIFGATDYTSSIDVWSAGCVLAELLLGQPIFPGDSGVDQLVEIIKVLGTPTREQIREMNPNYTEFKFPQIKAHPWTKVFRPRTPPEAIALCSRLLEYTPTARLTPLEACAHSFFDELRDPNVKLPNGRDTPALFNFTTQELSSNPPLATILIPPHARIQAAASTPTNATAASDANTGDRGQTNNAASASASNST
# method_summary: GSK3b TR-FRET kinase assay
# Assay type: biochemical
# study_conditions: 1 nM GSK3b, 2 μM ATP, 30 minute preincubation, Table 16; read-out: GSK3-B TR-FRET BIOCHEMICAL (TR-FRET); IC50
readout_label: IC50

// worked examples, IC50 included
CCC1(c2cccc(N(C)C(=O)CN3CCCC3)c2)C2=C(CC(C)(C)CC2=O)Nc2n[nH]cc21 (stereo not drawn) [Compound 913125] | 100 to 1000 nM
CC1(C)CC(=O)C2=C(C1)Nc1n[nH]cc1C2(CO)CO | > 5000 nM
CCC1(c2cccc(N(C)c3nc(C)cc(C)n3)c2)C2=C(CC(C)(C)CC2=O)Nc2n[nH]cc21 (stereo not drawn) | 1000 to 5000 nM
CCC1(c2cccc(C3CCOC3)c2)C2=C(CC(C)(C)CC2=O)Nc2n[nH]cc21 (stereo not drawn) | 1000 to 5000 nM
CCN(c1cccnc1)c1cccc(C2(CC)C3=C(CC(C)(C)CC3=O)Nc3n[nH]cc32)c1 (stereo not drawn) [Compound 917089] | 1000 to 5000 nM
CC[C@@]1(c2cccc(S(=O)(=O)CC3CC3)c2)C2=C(CC(C)(C)NC2=O)Nc2n[nH]c(C(F)(F)F)c21 | 100 to 1000 nM
CCC1(c2cccc(-c3ccn(C)n3)c2)C2=C(CC(C)(C)CC2=O)Nc2n[nH]c(C)c21 (stereo not drawn) [Compound 913039] | > 5000 nM
CCC1(CC)C2=C(CC(C)(C)CC2=O)Nc2n[nH]c(C3CC3)c21 | > 5000 nM
CCC1(c2cccc(C3CCOC(C)(C)C3)c2)C2=C(CC(C)(C)CC2=O)Nc2n[nH]cc21 (stereo not drawn) [Compound 912090] | > 5000 nM
CCN1CC2(C1)C1=C(CC(C)(C)CC1=O)Nc1n[nH]cc12 | > 5000 nM

Please look up its IC50: CCC1(c2cccc(-c3ccncc3F)c2)C2=C(CC(C)(C)CC2=O)Nc2n[nH]cc21 (stereo not drawn) [Compound 913349]
≤ 100 nM

Please look up its IC50: CCN(c1cccc(C2(CC)C3=C(CC(C)(C)CC3=O)Nc3n[nH]cc32)c1)c1ncccn1 (stereo not drawn)
≤ 100 nM

Please look up its IC50: CCC1(c2cc(N3CCOCC3)ccc2F)C2=C(CC(C)(C)CC2=O)Nc2n[nH]cc21 (stereo not drawn)
1000 to 5000 nM

Please look up its IC50: CCn1cc(N2CCC3=C(C2=O)[C@](CC)(c2cccc(C(F)(F)F)c2)c2c[nH]nc2N3)cn1 [Compound 949868]
> 5000 nM
